- assay-summary: soluble on expression in E. coli; label from the status in PepcDB or PDB records
reported-endpoint: soluble on expression in E. coli

MRCPWLIRVGVDIGGTFTDLIVFDEGSGRLESLKVLTTPREPWVGVIRALEEASVDIEGVDVVIHATTLGTNMFLGQEGLEPPSAVLITNRGFRDVLEIGRQNRPELYNLYFTRPKPLVPRDRRLVVKGRIDARGNVVEDIDRGEVARLAKEWCGRADVFIVSMLNSHINPVHEDEIGSIITREC
not soluble
MGSDKIHHHHHHMLDIKYYVLIDAIATHGTVHDAAAAIGITQPAATHRIREMERRLGVALFHREGRRLTLSASGERLLDTAHAVLPQLRNAELEAWQLARRAEPALRLGIGPYDTFSRAIPHLYDQHERDIDLVRLPMADMTTALLANRVDMICMIEVPSQRGIAHQLLFEEPLVAVLPPDHPDAQSDTIPAEVFDRGRHFTYSITPESGHEFEHFFQPAGVYPSHMVQIESVALILELVAAGKGVSILSRWAARDAHQAGHVVMRPLAGDIPRIPWYLAYTQTPHIAAVAEPLADTLRHLYRADE
not soluble

---

- assay-summary: soluble on expression in E. coli; label from the status in PepcDB or PDB records
reported-endpoint: soluble on expression in E. coli

MSLANILAIDDSGLMQAFWVRILSRSQHNVITVSSGDEMRGVLATMNPQLIFLDLSFPGENGFELLQHIRSYQHCLEIPVIAVSGYAGEDTRQACREAGFTDFLAKPFSLAELRGMLARYLDHATEGHHHHHH
not soluble
MGSDKIHHHHHHMPSGGVLPVGVHATPMSVREEFDEWAASGRDKGMEDRHWHTAKDVLARMPVEDDDTVLDLGTGSGYAVRALRERGVARGYGLDGAPEMAANARTYTDDDDLAYVVGDFGSLPFADDAIDHVFSFEAFYYASDPRETLAEIRRVLKSGGTFYCGVNYYEENVHSHDWQDSISVEMTRWDRATYREAFRGAGLHVAAQDLIADTEIDIPAASEFPHEGFDSRADMVERYRTFGTLLTVGVAP
not soluble

---

- assay-summary: soluble on expression in E. coli; label from the status in PepcDB or PDB records
reported-endpoint: soluble on expression in E. coli

Below are worked cases with known answers.
PTPPNWNMTSSGLEVKSPGDGILTPGENMELVAAVCSACHSLHMVTQQGLSRQRWDESLDWMIEEQGMEDLSGDDREAILEYLSTYYGG
not soluble
MNNKRTKGENVYQLVQKRLKFLFNEFDNIYVSFSGGKDSGVLLNLCIQYIREHNLDRKIGVYHMDYEAQYQMTTEYVEQTFRENQDILEIYHVCVPFKVVTCASMFQTYWRPWDESMHAHWVRPMPKNCYKKEDFPFYNEEMWDYTFQTSFASWYHKKHDAVRTCCLVGIRTQESLDRWRTIHGNNRLNSYHNLMWTRRLGYDLYNAYPIYDWTTEDIWTAYARFKWPFNQMYELYYK
not soluble
MGSDKIHHHHHHMGFEMTRGHLTWNDFKIVMAIANAGSLSGAARSLGVNHATVFRRLGDIERRLGVALFERSRKGYKPSLAGEELANTARIMDEAAHSAERKVAGRDLRPSGEIWVTTTDSLLMGLLAPLFKEFRNRYPDIVLDVAVANEMLNLTRREADVGIRPVNRPPENLIGRRLATVGQAIFGHRNLGLDKGQSIDFLSQQPWIGAGPRLQDSVLEQWMAQKNLADACVFRVDTLVGLLSAVNEGLGLAALPCYLAETCPDIVQLSDPIPELNYDLRKPLKVATHST
not soluble
MSLGSSDLPAHALVGYLHASFANGSGYTRMADVPDSWDVIDLAFGEPTSVTSGDIRFERCPVAECPNVESDAEFKAAIKAKQAAGKKVLISIGGQNGQVQLTSTAARDKFVSSVSAIIDEYGLDGLDIDFEGHSLSLNADDTDFKNPKTPVIVNLVSAVKTLKAKYGDGFVLTMAPETFFVQLGYQYYGTGKWGGQDPRAGAYLPVIHALRDDLTLLHVQDYNSGSIMGLDNQYHSMGGADFHIAMTDMLLTGFPVAGDANNVFPPLRPDQVAIGMPASTQAGNGHVSPAEVTKALNCLTKKTDCGSYATHGTWPDLRGLMTWSINWDRYSNWEFQKNFDAYFGEGHHHHHH
soluble
MSLTDLSMPKPPSVLPDKRQVAASFSRAAGSYESVAELQRSVGSELLSRLPAQFSPVRWLDLGSGTGYFSRALDQVFSGSEGIALDIAEGMLRHAQPLGGAQHFVAGDAEHLPLRDQSCGLIFSSLAVQWCADFAAVLREAHRVLQPSGVFAFASLCVGTLYELRDSWQAVDGQVHVNRFRHEDDYRQLCAASGLQVRSLDVCPQVLHYPDVRSLTHELKALGAHNLNPGRPSGLTGRERIKGMVQAYEAFRQEAGLPATYQVVYAVLEKAEGHHHHHH
not soluble

Give its soluble on expression in E. coli value. Item: MDYRVLLYYKYVTIDDPETFAAEHLKFCKEHHLKGRILVSTEGINGTLSGTKEDTDKYIEHMHADNRFADLTFKIDEAESHAFKKMHVRPRREIVALDLEEDINPREITGKYYSPKEFKAALEDENTVILDARNDYEYDLGHFRGAIRPDITRFRDLPEWVRNNKEQLDGKNIVTYCTGGIRCEKFSGWLVKEGFENVGQLHGGIATYGKDPETKGQYWDGKMYVFDERISVDVNQIDKTVIGKEHFDGTPCERYINCANPECNKQILVSEENEEKYLGACSYDCAKHERNRYVARHHISNEEWQRRLNNFKDVPEHTHALEHHHHHH soluble

Give its soluble on expression in E. coli value. Item: MGSDKIHHHHHHDLEEYRTTPKMVINSAFSPDTVVMASISRTWFHSESKPDVTIRNAKVELYIDGIFKEEMPWKEYSYWKSSRWLGEDRGGWVTDTLYISNTVPQPGQTVKIVASTPEYGTASAEDKIPSKTEIKGLRIIPRKEATGNGGTLVDGDGNISYIEENDVLIYQITFQDTPGKSNYYSLQIWGDDDHLGVLLDFSVDPVFTQQQGILDEVFGSSMVNWRGRVFSDELFDGKEYTLQVKEQLRSDTKYYTKRHIRLYSLSEPYYQYLLSLQNIKNEGIMGGLTNVGLAEPVRIYSNVEGGTGIAGGCQWFESLVDIKDLIK not soluble

Give its soluble on expression in E. coli value. Item: MNQWMELADRVLAGAEVTDEEALSILHCPDEDILLLMHGAFHIRKHFYGKKVKLNMIMNAKSGLCPENCGYCSQSAISKAPIESYRMVNKETLLEGAKRAHDLNIGTYCIVASGRGPSNREVDQVVDAVQEIKETYGLKICACLGLLKPEQAKRLKDAGVDRYNHNLNTSQRNHSNITTSHTYDDRVNTVEIAKESGLSPCSGAIIGMKETKQDVIDIAKSLKALDADSIPVNFLHAIDGTPLEGVNELNPLYCLKVLALFRFINPSKEIRISGGREVNLRTLQPLGLYAANSIFVGDYLTTAGQEETEDHKMLSDLGFEVESVEEMKASLSAKSLEHHHHHH not soluble

Give its soluble on expression in E. coli value. Item: MSLKDICLKVFGDYACFTRPEMKVERVSYDIITPSAARAIFEAILWKPAIRWRVTKIEVLKPIRWISVRRNEVGAVASVRTAQTAMQAGRGDLGLYIEEERQQRAGLFLREVAYRLHARCEPTDRKGEQESPDKFLAMFHRRATNGQCFNQPYLGCREFAAHFEPVTNLDAAMADEPPITETRDLGWMLHDIDFANGIQPKFFRAHMQQGVIRVPEWNSEGVKGEGHHHHHH soluble

Give its soluble on expression in E. coli value. Item: MGSDKIHHHHHHMKKLIAGVLVLTILGSCGNKKTNIDPFASITQEVDSIRHKADSIHQEELPEEPKPTEADESFDDFIYNFASDDALQRQRVKFPLPYYKGDEKTNIEERNWKHDDLFTKQHYYTLLFDKEEDMDLVGDTSLTSVQVEWIFVKTRMVKKYYFERIKGAWILEAINLRPVERNENEDFVEFFSHFAADSLFQSRRVQEPLAFVTSDPDDDFSILETSLDLNQWFAFKPALPTDRLSNINYGQRNDDNSPTKILALKGIGNGFSNILYFRRKAGEWQLYKFEDTSI not soluble

---

- assay-summary: soluble on expression in E. coli; label from the status in PepcDB or PDB records
reported-endpoint: soluble on expression in E. coli

MAHHHHHHSLRLTPLPQPKRIHYMVKVGDTLSGIFAQLGVPYSILQKILSVDLDHLQLDMIQPGEELELMMDDMGQLSRLIYHMSIVEKAIYTRENDGSFSYDFQEISGEWREILFSGEINGSFSVSARRVGLTSSQVANITQVMKDKIDFSRSLRAGDRFDILVKQQYLGEHNTGNSEIKAISFKLAKGDVSAFLAEDGRFYDRAGNSLERAFNRYPVDKAYRQITSGFNPKRKHPVTGRVVPHNGTDFATPIGAPVYSTGDGKVIVVRKHPYAGNYLVIEHNSVYKTRYLHLDKILVKKGQLVKRGQKIALAGATGRLTGPHLHFEVLVRNRPVDAMKADLPIAKSLSSNQKTSFLARVSEFDHLVQANQQEVALDEG
soluble
MGSDKIHHHHHHMIRDARVLRAGFVPREVEHRDAEVNHLSSVLEPITNGEPADTAIVTGPSGAGKTCISQFVTERLREEVLDVETTYVNCWRNYTRFRTLYQILDDLGATIDIHRQSTPHDELVDRLQQHDGPRTVVILDEVDQLEDPSVIYDLHSLPQFAIICIANKEEELFSRVDDRLVSRLRSSEHVRMDKYHDEQLYDILSARAKWGLDEDVITDDQLYRIADAAAGDARLAIGILRTAAGKADRENHERITDDILLNAAEDARAQIKQKSLDSLTPHQRVVYDIVREHGPIGPSEIHERYSEDVDDPRTKRTIRTYLSKMEQYNLLEAEGTSRDREYSLVDSAAASPMQ
not soluble
SMQGPRTRARLGANEVLLVVGGFGSQQSPIDVVEKYDPKTQEWSFLPSITRKRRYVASVSLHDRIYVIGGYDGRSRLSSVECLDYTADEDGVWYSVAPMNVRRGLAGATTLGDMIYVSGGFDGSRRHTSMERYDPNIDQWSMLGDMQTAREGAGLVVASGVIYCLGGYDGLNILNSVEKYDPHTGHWTNVTPMATKRSGAGVALLNDHIYVVGGFDGTAHLSSVEAYNIRTDSWTTVTSMTTPRCYVGATVLRGRLYAIAGYDGNSLLSSIECYDPIIDSWEVVTSMGTQRCDAGVCVLRE
soluble
MTEISPKILETSSEPPPKKKRANFTLEFKNEVIRFAEQTNNCQAQKKYGVARACIQRWRHLKHELAFESEGKQGAKRLGGAGRPLKNVELDEKVEDWIASKNGKISGKDIKEYAKKINGNADFKASNGWLQRFMIRHGLIKARSSSPKTPSTSDGTTDKTLEESLFELINSDEWKNISEGNVSGFLEDFNAENGETSLKVEGNNSTTTESEVKQKPNESSKLPEINIFQQLEMLIKDSNGKEDSVEETETSVNRSPKSY
not soluble

Attention now shifts to the item below.
Give its soluble on expression in E. coli value. Item: MASIGRAIVRVPKNVKKGQIFKVQMVIIHPMETGLRKDPKTGKKIPAHYITHVDLYFNGKLVTKINTSPGISKNPYFAIKMKAEEAGTLKIVYEDNKGGKWEKEVKINVA not soluble
